Item-by-item account of Bliss excess
# Tested on: NCI-H747 (Colorectal Carcinoma);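 further: after 72 h of two-drug dosing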
# PROCEDURE_TEXT: Bliss excess, mean over the matrix (fraction); higher = more synergy
A bare number is all that is needed in reply.

[
  {
    "MOLECULE": "C[C@@H](c1ccc2nccn2c1)n1nnc2ncc(-c3cnn(C)c3)nc21 [Savolitinib] + CN(CC[C@H](CSC1=CC=CC=C1)NC2=C(C=C(C=C2)S(=O)(=O)NC(=O)C3=CC=C(C=C3)N4CCC(CC4)[C@H](C5=CC=CC=C5C6=CC=C(C=C6)Cl)O)S(=O)(=O)C(F)(F)F)CCO [AZD4320] (first compound max 1 µM, 7x7, partner max 1 µM)",
    "DATA_VALUE": -0.0808
  },
  {
    "MOLECULE": "CCc1c2c(nc3ccc(O)cc13)-c1cc3c(c(=O)n1C2)COC(=O)[C@]3(O)CC [SN-38] + O=C(c1cc(Cc2n[nH]c(=O)c3ccccc23)ccc1F)N1CCN(C(=O)C2CC2)CC1 [Olaparib] (first compound max 0.3 µM, 7x7, partner max 10 µM)",
    "DATA_VALUE": 0.0512
  },
  {
    "MOLECULE": "CC1(C)CCC(CN2CCN(c3ccc(C(=O)NS(=O)(=O)c4ccc(NCC5CCOCC5)c([N+](=O)[O-])c4)c(Oc4cnc5[nH]ccc5c4)c3)CC2)=C(c2ccc(Cl)cc2)C1 [Venetoclax] + Cn1cnc2c(F)c(Nc3ccc(Br)cc3Cl)c(C(=O)NOCCO)cc21 [Selumetinib] (first compound max 1 µM, 7x7, partner max 3 µM)",
    "DATA_VALUE": -0.0489
  },
  {
    "MOLECULE": "COc1nnc2ccc(N3CCC(c4ccc(OCCN5CCN(C)C(=O)[C@H]5C)cc4)CC3)nn12 [AZD5153] + Cc1c2c(nn1C)CSCc1cc(n(C)n1)CSc1cc(c3ccccc3c1)OCCCc1c(C(=O)O)n(C)c3c-2c(Cl)ccc13 [AZD5991] (first compound max 1 µM, 7x7, partner max 1 µM)",
    "DATA_VALUE": -0.0442
  },
  {
    "MOLECULE": "CC(=O)c1c(C)c2cnc(Nc3ccc(N4CCNCC4)cn3)nc2n(C2CCCC2)c1=O [Palbociclib] + CN(CC[C@H](CSC1=CC=CC=C1)NC2=C(C=C(C=C2)S(=O)(=O)NC(=O)C3=CC=C(C=C3)N4CCC(CC4)[C@H](C5=CC=CC=C5C6=CC=C(C=C6)Cl)O)S(=O)(=O)C(F)(F)F)CCO [AZD4320] (first compound max 10 µM, 7x7, partner max 1 µM)",
    "DATA_VALUE": -0.0425
  },
  {
    "MOLECULE": "Cc1nc(Nc2ncc(C(=O)Nc3c(C)cccc3Cl)s2)cc(N2CCN(CCO)CC2)n1 [Dasatinib] + CC(=O)Nc1cccc(-n2c(=O)n(C3CC3)c(=O)c3c(Nc4ccc(I)cc4F)n(C)c(=O)c(C)c32)c1 [Trametinib] (first compound max 2 µM, 7x7, partner max 1 µM)",
    "DATA_VALUE": -0.0238
  },
  {
    "MOLECULE": "COc1cccc(OCCCN)c1-c1cc(Nc2cnc(C#N)cn2)n[nH]1 [Prexasertib] + O=C(c1cc(Cc2n[nH]c(=O)c3ccccc23)ccc1F)N1CCN(C(=O)C2CC2)CC1 [Olaparib] (first compound max 1 µM, 7x7, partner max 10 µM)",
    "DATA_VALUE": 0.0024
  },
  {
    "MOLECULE": "CCN(CCO)CCCOc1ccc2c(Nc3cc(CC(=O)Nc4cccc(F)c4)[nH]n3)ncnc2c1 [AZD2811] + C=CCn1c(=O)c2cnc(Nc3ccc(N4CCN(C)CC4)cc3)nc2n1-c1cccc(C(C)(C)O)n1 [AZD1775] (first compound max 1 µM, partner max 1 µM)",
    "DATA_VALUE": -0.0538
  }
]

Query COc1cccc(OCCCN)c1-c1cc(Nc2cnc(C#N)cn2)n[nH]1 [Prexasertib] + C[C@@H]1COCCN1C2=NC(=NC(=C2)C3(CC3)[S@](=N)(=O)C)C4=C5C=CNC5=NC=C4 [AZD6738] (first compound max 1 µM, 7x7, partner max 10 µM) yields Bliss excess of -0.0294

Record CC1(C)CCC(CN2CCN(c3ccc(C(=O)NS(=O)(=O)c4ccc(NCC5CCOCC5)c([N+](=O)[O-])c4)c(Oc4cnc5[nH]ccc5c4)c3)CC2)=C(c2ccc(Cl)cc2)C1 [Venetoclax] + C1CN(CCC1(C(=O)N[C@@H](CCO)C2=CC=C(C=C2)Cl)N)C3=NC=NC4=C3C=CN4 [Capivasertib] (first compound max 1 µM, 7x7, partner max 3 µM) , field Bliss excess: -0.0537

According to the records, this molecule Cc1cc2ncnn2cc1Nc1ncc2c(n1)n(C1CCOCC1)c(=O)n2C [AZD7648] + CCN(CCO)CCCOc1ccc2c(Nc3cc(CC(=O)Nc4cccc(F)c4)[nH]n3)ncnc2c1 [AZD2811] (first compound max 10 µM, 7x7, partner max 1 µM) displays Bliss excess of -0.0205

Form field Bliss excess, entry Cn1cnc2c(F)c(Nc3ccc(Br)cc3Cl)c(C(=O)NOCCO)cc21 [Selumetinib] + C=CCn1c(=O)c2cnc(Nc3ccc(N4CCN(C)CC4)cc3)nc2n1-c1cccc(C(C)(C)O)n1 [AZD1775] (first compound max 10 µM, partner max 1 µM) : -0.0761

Sure, the documented Bliss excess for COc1cc2ncnc(Nc3ccc(F)c(Cl)c3)c2cc1OCCCN1CCOCC1 [Gefitinib] + CC(C)n1c(=O)n(C)c2cnc3cc(F)c(-c4ccc(OCCCN5CCCCC5)nc4)cc3c21 [AZD1390] (first compound max 10 µM, 7x7, partner max 0.3 µM) is -0.0986

###

# Test system: SH-4 (Melanoma)
# PROCEDURE_TEXT: combination Emax (second highest fraction inhibited in the dose matrix, 72 h); higher = more inhibition; extreme values may be limits of the assay
Reported combination Emax is given for each of the following molecules.
Output spec: single numeric token, no unit.

// below: answered molecules
[
  {
    "MOLECULE": "COc1cccc(OCCCN)c1-c1cc(Nc2cnc(C#N)cn2)n[nH]1 [Prexasertib] + C=CCn1c(=O)c2cnc(Nc3ccc(N4CCN(C)CC4)cc3)nc2n1-c1cccc(C(C)(C)O)n1 [AZD1775] (first compound max 1 µM, partner max 1 µM)",
    "TEST_SYSTEM": "SH-4 (Melanoma)",
    "ATTRIBUTE_MEASURED": "combination Emax",
    "DATA_VALUE": 0.742
  },
  {
    "MOLECULE": "Cc1cc2ncnn2cc1Nc1ncc2c(n1)n(C1CCOCC1)c(=O)n2C [AZD7648] + COc1cc([C@@H]2c3cc4c(cc3[C@@H](O[C@@H]3O[C@@H]5CO[C@@H](C)O[C@H]5[C@H](O)[C@H]3O)[C@H]3COC(=O)[C@H]23)OCO4)cc(OC)c1O [Etoposide] (first compound max 10 µM, 7x7, partner max 10 µM)",
    "TEST_SYSTEM": "SH-4 (Melanoma)",
    "ATTRIBUTE_MEASURED": "combination Emax",
    "DATA_VALUE": 0.492
  }
]

Briefly, combination Emax measured for CC1(C)CCC(CN2CCN(c3ccc(C(=O)NS(=O)(=O)c4ccc(NCC5CCOCC5)c([N+](=O)[O-])c4)c(Oc4cnc5[nH]ccc5c4)c3)CC2)=C(c2ccc(Cl)cc2)C1 [Venetoclax] + C[C@@H]1COCCN1C2=NC(=NC(=C2)C3(CC3)[S@](=N)(=O)C)C4=C5C=CNC5=NC=C4 [AZD6738] (first compound max 1 µM, 7x7, partner max 10 µM) : 0.304

###

# System: UMC-11 (Other Solid Carcinomas)
# PROCEDURE_TEXT: combination Emax (second highest fraction inhibited in the dose matrix, 72 h); higher = more inhibition; extreme values may be limits of the assay
ATTRIBUTE_MEASURED: combination Emax
Answer as a number with no unit attached.

Short answer for COc1cccc(OCCCN)c1-c1cc(Nc2cnc(C#N)cn2)n[nH]1 [Prexasertib] + O=C(c1cc(Cc2n[nH]c(=O)c3ccccc23)ccc1F)N1CCN(C(=O)C2CC2)CC1 [Olaparib] (first compound max 1 µM, 7x7, partner max 10 µM) : combination Emax was 0.902

Just so you know, measured combination Emax for CS(=O)(=O)CCNCc1ccc(-c2ccc3ncnc(Nc4ccc(OCc5cccc(F)c5)c(Cl)c4)c3c2)o1 [Lapatinib] + C[C@@H](Oc1cc(-c2cnn(C3CCNCC3)c2)cnc1N)c1c(Cl)ccc(F)c1Cl [Crizotinib] (first compound max 10 µM, 7x7, partner max 10 µM) came out at 0.703

The reported value for C=CCn1c(=O)c2cnc(Nc3ccc(N4CCN(C)CC4)cc3)nc2n1-c1cccc(C(C)(C)O)n1 [AZD1775] + O=C(c1cc(Cc2n[nH]c(=O)c3ccccc23)ccc1F)N1CCN(C(=O)C2CC2)CC1 [Olaparib] (first compound max 1 µM, partner max 10 µM) in terms of combination Emax is 0.438

Measured combination Emax of Cc1c2c(nn1C)CSCc1cc(n(C)n1)CSc1cc(c3ccccc3c1)OCCCc1c(C(=O)O)n(C)c3c-2c(Cl)ccc13 [AZD5991] + Cc1cc2ncnn2cc1Nc1ncc2c(n1)n(C1CCOCC1)c(=O)n2C [AZD7648] (first compound max 1 µM, 7x7, partner max 10 µM) : 0.625
